assay: peroral toxicity to mammals (rat); format: in vivo; details: in vivo, po, dose required to achieve mortality rate of 50 percent, read-out: A.O. RAT LD50
LD50 reference
API: value field is a number in mg/kg; no unit string.

Below are worked cases with known answers.
CSC(C)=NOC(=O)N(C)SC(C)(C)C(=O)C(C)C; 134
CSC(C)=NOC(=O)N(C)SSC(C)(C)C(=O)C(C)C; 226
CC(=NOC(=O)N(C)SC(C)(C)C(=O)C(C)C)SC(C)C; 37
CC(C)C(=O)C(C)(C)SN(C)C(=O)Oc1cccc2c1OC(C)(C)C2; 31
CC(=NOC(=O)N(C)SSC(C)(C)C(=O)C(C)C)SC(C)C; 42
CC(C)C(=O)C(C)(C)SN(C)C(=O)ON=C1SCOC1C (stereo not drawn); 16
CC(C)C(=O)C(C)(C)SN(C)C(=O)ON=C1SC(C)(C)C(=O)N1C; 226
CSC(C)=NOC(=O)N(C)SSC(C)(C)C(=O)c1ccccc1; 226

Now for a further compound.
Request: Consider the compound CC(C)C(=O)C(C)(C)SN(C)C(=O)ON=CC(C)(C)[N+](=O)[O-] and give its measured LD50.
Response: 12

###

NEMATODES activity rating (galling) reference
tested on: root-knot nematode, Meloidogyne incognita var. acrita; assay: Nematocide Test; type: in vivo; set-up: key: 1: severe galling, equal to untreated plants; 2: moderate galling; 3: light galling; 4: very light galling; 5: no galling, perfect control; conditions: 3.33 m.g. of test compound per jar; cucumber, approximately 3 weeks
Give the figure only, with no unit attached.

CSC(C)=NOC(=O)N(C)SC(C)(C)C(=O)C(C)C; 1
CC(=NOC(=O)N(C)SSC(C)(C)C(=O)C(C)C)SC(C)C; 4
CSC(C)=NOC(=O)N(C)SSC(C)(C)C(=O)C(C)C; 3
CSC(C)(C)C=NOC(=O)N(C)SC(C)(C)C(=O)C(C)C; 3
CC(=NOC(=O)N(C)SC(C)(C)C(=O)C(C)C)SC(C)C; 3
CN(SC(C)(C)C(=O)c1ccccc1)C(=O)ON=C1SC(C)(C)C(=O)N1C; 3
CC(C)C(=O)C(C)(C)SN(C)C(=O)ON=C1CSCCS1; 3

Now for a further compound.
Request: Consider the compound CC(C)C(=O)C(C)(C)SN(C)C(=O)ON=C(C#N)c1ccccc1 and give its measured NEMATODES activity rating (galling).
Response: 3

Origin of measurements: patent US4179514A
